System: Sb-Gluc (modified PV expressing Gaussia Luciferase)
Type: cell-based, poliovirus
Conditions: read-out: IC50 against Sb-GLuc on the basis of luminescent signal
Measurement Type: pIC50
Numbers only, as −log10 of the molar value.

For the compound Nc1ccn([C@@H]2O[C@H](CO)[C@@H](O)C2(F)F)c(=O)n1 , give its measured pIC50 value. 5.59

* * *

Could you please report measured viability at 10 µM for the items listed next?
Assay: in vitro
Conditions: human
Structures can show the parent of a compound that is named as a salt.
Numbers only, in %.

Below, 3 compounds whose answers are already recorded.
Compound	viability at 10 µM [%]
COc1cc2ncnc(Nc3ccc(F)c(Cl)c3)c2cc1OCCCN1CCOCC1	80.1
CC(=O)N1CCN(c2ccc(OCC3COC(Cn4ccnc4)(c4ccc(Cl)cc4Cl)O3)cc2)CC1 (centres unmarked)	103
C=C(NC(=O)C(=C)NC(=O)c1csc(C2=N[C@@H]3c4csc(n4)[C@H]4NC(=O)c5csc(n5)[C@H]([C@](C)(O)[C@@H](C)O)NC(=O)[C@H]5CSC(=N5)/C(=C/C)NC(=O)[C@H]([C@@H](C)O)NC(=O)c5csc(n5)[C@]3(CC2)NC(=O)[C@H](C)NC(=O)C(=C)NC(=O)[C@H](C)NC(=O)[C@H]([C@@H](C)CC)N[C@@H]2C=Cc3c([C@H](C)O)cc(nc3[C@H]2O)C(=O)O[C@@H]4C)n1)C(N)=O	87.9

Hi team, please reply with viability at 10 µM for each item in this list.
1. CCOc1ccc(Cc2nccc3cc(OCC)c(OCC)cc23)cc1OCC [ethaverine hydrochloride]
2. CCC(C)n1ncn(-c2ccc(N3CCN(c4ccc(OCC5COC(Cn6cncn6)(c6ccc(Cl)cc6Cl)O5)cc4)CC3)cc2)c1=O (centres unmarked)

1: 88.4; 2: 79.4

* * *

Assay: in vitro
Conditions: human
Could you please report measured viability at 10 µM for the items listed next?
Answers are plain numbers, in %.

Below, 2 molecules whose answers are already recorded.
                                   molecule  number
0  CCCC1C(=O)N2C(N(C)C)=Nc3ccc(C)cc3N2C1=O (stereo not drawn) [azapropazone]    91.2
1  CC(=O)O[C@]1(C(C)=O)CC[C@H]2[C@@H]3C=C(Cl)C4=CC(=O)[C@@H]5C[C@@H]5[C@]4(C)[C@H]3CC[C@@]21C [cyproterone acetate]    75.4

Then there is this molecule:
For the molecule Nc1ccn([C@@H]2O[C@H](CO)[C@@H](O)C2(F)F)c(=O)n1 [gemcitabine, 2′,2′-difluoro-2′-deoxycytidine] , give its measured viability at 10 µM value. 87.9

meta.source: paper PMC5754216
